Let's look at some compounds and their measured inhibition of SARS-CoV-2 cytopathic effect.
# Tested on: Vero E6 infected with SARS-CoV-2
# test.name: inhibition of SARS-CoV-2 cytopathic effect; higher = more antiviral protection, active = above 15
# run.conditions: 833.33 nM; 48 h
Response body: numeric value in %, unit text excluded.

Completed entries (count: 8):
* COc1cc(-c2ncn(/C=C\C(=O)OC(C)C)n2)cc(C(F)(F)F)c1 | -12.1
* Cc1nc(Nc2cnn(C3CCNCC3)c2)nc2c1N(C)C(=O)c1cc3ccccc3cc1N2C | 1.63
* CNC(=O)c1ccc(Nc2ncc(C(F)(F)F)c(NCc3nccnc3N(C)S(C)(=O)=O)n2)cc1 | -2.59
* N[C@@H](Cn1ccc(=O)n(Cc2ccccc2C(=O)O)c1=O)C(=O)O | 1.26
* NC(=O)C(c1ccccc1)(c1ccc(F)cc1)c1ccc(F)cc1 | 0.14
* Nn1cnc2cc3ccccc3cc2c1=O | -1.41
* Cc1[nH]c2ccc(Cl)cc2c1C1=CCNCC1 | 1.48
* O=Cc1cn(Cc2ccc(Cl)cc2)c2ccccc12 | 2.11

Query: # inhibition of SARS-CoV-2 cytopathic effect lookup, item Cc1ncc[nH]1
Result: -3.06

Query: For the compound C(#Cc1nc2ncccc2nc1OCCN1CCCC1)c1ccccc1 , what inhibition of SARS-CoV-2 cytopathic effect is on record?
Result: 7.05

====

# Tested on: Vero E6 infected with SARS-CoV-2
# test.name: inhibition of SARS-CoV-2 cytopathic effect; higher = more antiviral protection, active = above 15
# run.conditions: 10000 nM; 48 h
Outcome (select one): active, inactive

As a guide, the following entries are already answered.
• CC(Cc1ccccc1)(NC(=O)CN)c1ccccc1 (centres undefined) [remacemide] = inactive
• C1CCC(NC2CCCCC2)CC1 [dicyclohexylamine] = inactive
• CC(C)(N)C(=O)N[C@H](COCc1ccccc1)C(=O)N1CCC2(CC1)CN(S(C)(=O)=O)c1ccccc12 [ibutamoren] = inactive

Here is another compound to look at.
Query: In this assay, the call recorded for Cc1ncc[nH]1 [2-methylimidazole] was what?
Result: inactive

====

# Tested on: Vero E6 infected with SARS-CoV-2
# test.name: SARS-CoV-2 infection rate relative to infected DMSO; higher = more infection, active = 60 or less
# run.conditions: 24 h
measure: SARS-CoV-2 infection rate

Past entries and their recorded results:
* CN(C)C1CCN(C(=O)c2ccc(NC(=O)Nc3ccc(-c4nc(N5CCOCC5)nc(N5CCOCC5)n4)cc3)cc2)CC1 (10 µM) | 115% (inactive)
* O=C([O-])c1ccccn1.O=C([O-])c1ccccn1.O=C([O-])c1ccccn1.[Cr+3] [chromium-picolinate] (10 µM) | 112% (inactive)
* Cc1ccc(N(CC2=NCCN2)c2cccc(O)c2)cc1 [phentolamine] (10 µM) | 98% (inactive)

Query: Fill in: SARS-CoV-2 infection rate of Cc1nc(Nc2cnn(C3CCNCC3)c2)nc2c1N(C)C(=O)c1cc3ccccc3cc1N2C (0.833333 µM) is ___
Result: 104% (inactive)

====

# inhibition of SARS-CoV-2 cytopathic effect per record follows
# System: Vero E6 infected with SARS-CoV-2
# test.name: inhibition of SARS-CoV-2 cytopathic effect; higher = more antiviral protection, active = above 15
# run.conditions: 8.33 nM; 48 h
A number alone suffices; assume %.

Observe how each entry below is paired with its result.
- CC(CN(C)C)CN1c2ccccc2CCc2ccccc21 (stereo not drawn): -0.87
- O=C(Cc1ccc(-c2ccccc2)cc1)Nc1ccccn1 [difenpiramide]: 3.03
- CCOC(=O)C1=C(N)Oc2ccc(Br)cc2C1C(C#N)C(=O)OCC (stereo not drawn): 0.28
- Nc1nc(=O)c(Br)c(-c2ccccc2)[nH]1: 1.04
- N#Cc1c(N)nc(SCc2csc(-c3ccc(Cl)cc3)n2)c(C#N)c1-c1ccc(OCCO)cc1: -0.34

Query: Given the compound Cc1[nH]c(/C=C2\C(=O)Nc3ccc(S(=O)(=O)N(C)c4cccc(Cl)c4)cc32)c(C)c1C(=O)N1CCN(C)CC1 , what is its reported inhibition of SARS-CoV-2 cytopathic effect?
Result: 0.76

Query: inhibition of SARS-CoV-2 cytopathic effect lookup needed for Oc1ccc2c3c1O[C@H]1[C@@H](O)CC[C@@]4(O)[C@@H](C2)N(CC2CCC2)CC[C@]314 , thanks.
Result: 0.43

Query: Field request: inhibition of SARS-CoV-2 cytopathic effect | item: O=C([O-])c1ccccn1.O=C([O-])c1ccccn1.O=C([O-])c1ccccn1.[Cr+3] [chromium-picolinate]
Result: 3.76

Query: GET /values?readout=inhibition of SARS-CoV-2 cytopathic effect&item= CC(C)C(=O)SCCCCC[C@H](NC(=O)OC(C)(C)C)C(=O)NC12CC3CC(CC(C3)C1)C2
Result: -0.36

Query: Fill in: inhibition of SARS-CoV-2 cytopathic effect of CNC1CC(c2ccc(Cl)c(Cl)c2)c2ccccc21 (stereo not drawn) is ___
Result: 0.4

Query: Returns the measured inhibition of SARS-CoV-2 cytopathic effect for the input compound. Input: C=C[C@@]1(C)CC(=O)[C@]2(O)[C@@]3(C)[C@@H](O)CCC(C)(C)[C@@H]3[C@H](OC(=O)CCN(C)C)[C@H](OC(C)=O)[C@@]2(C)O1 [colforsin-daproate]
Result: -2.13

Query: // inhibition of SARS-CoV-2 cytopathic effect lookup, key: CCN(CC)CCOC(=O)C1(c2ccc([N+](=O)[O-])cc2)CCCC1
Result: 1.17

Query: I'd like to know its inhibition of SARS-CoV-2 cytopathic effect. The compound in question is O=C1N(c2ccccc2)c2ccccc2C1(Cc1ccncc1)Cc1ccncc1
Result: 0.32

Query: # query: inhibition of SARS-CoV-2 cytopathic effect of entry NCCC(O)(P(=O)(O)O)P(=O)(O)O [pamidronate]
Result: 2.17

====

# Test system: Vero E6 infected with SARS-CoV-2
# test.name: inhibition of SARS-CoV-2 cytopathic effect; higher = more antiviral protection, active = above 15
# run.conditions: 1 nM; 48 h
measure: inhibition of SARS-CoV-2 cytopathic effect (%)
Please respond with the number in % and leave the unit unwritten.

- OCc1ccc(O[C@@H]2O[C@H](CO)[C@@H](O)[C@H](O)[C@H]2O)cc1 [gastrodin]: -0.38

# context switch: different compound, same inhibition of SARS-CoV-2 cytopathic effect
Query: Look at this compound and give its reported inhibition of SARS-CoV-2 cytopathic effect. CC[C@H](NC(=O)c1c(O)c(-c2ccccc2)nc2ccccc12)c1ccccc1 [talnetant]
Result: -0.24

====

Measured inhibition of SARS-CoV-2 cytopathic effect by item
# Tested on: Vero E6 infected with SARS-CoV-2
# test.name: inhibition of SARS-CoV-2 cytopathic effect; higher = more antiviral protection, active = above 15
# run.conditions: 10000 nM; 48 h
Entry rule: numbers only, all in %.

* Cc1nc(N)sc1-c1ccnc(Nc2ccc(N3CCOCC3)cc2)n1 | 2.1
* CC(=O)c1ccc2c(c1)[C@H](NC(=O)c1ccc(F)c(Cl)c1)[C@H](O)C(C)(C)O2 | -2.32
* C[n+]1c2cc(N)ccc2cc2ccc(N)cc21 | -5.69
* CC(C)(C)NC(=O)[C@@H]1C[C@@H]2CCCC[C@@H]2CN1C[C@@H](O)[C@H](Cc1ccccc1)NC(=O)[C@H](CC(N)=O)NC(=O)c1ccc2ccccc2n1 | -22
* Cc1ccc(N(CC2=NCCN2)c2cccc(O)c2)cc1 | -4.23

Now look at this one.
Query: I am curious: what inhibition of SARS-CoV-2 cytopathic effect value has been reported for COc1ccc2c(c1)CN(C)CC2c1ccc(Cl)c(Cl)c1 (centres undefined) ?
Result: 1.83

====

# System: Vero E6 infected with SARS-CoV-2
# test.name: inhibition of SARS-CoV-2 cytopathic effect; higher = more antiviral protection, active = above 15
# run.conditions: 8.33 nM; 48 h
measure: inhibition of SARS-CoV-2 cytopathic effect (%)
Write the answer as a number in %, unit excluded.

These recorded examples may help you get a feel for the data.
• O=C(O)Cc1ccc(OCCNC[C@H](O)c2ccccc2)cc1 = 3.11
• CC(C)(C)[C@]1(O)CCN2C[C@H]3c4ccccc4CCc4cccc(c43)[C@@H]2C1 = 1.31
• COc1ccc2cc(C(C)C(=O)Oc3ccc(C(N)=S)cc3)ccc2c1 (configuration not stated) = 0.03

Query: Entry under review: Nc1nc(O)c2nc(Br)n([C@@H]3O[C@@H]4COP(=O)(O)O[C@H]4[C@H]3O)c2n1 . Reported inhibition of SARS-CoV-2 cytopathic effect?
Result: 2.94

Query: Item Cc1ccc(NC2=NCCN2)c(Cl)c1 has what recorded inhibition of SARS-CoV-2 cytopathic effect?
Result: 0.34

Query: Given the entry O=C(O)c1cc(/N=N/c2ccc(O)c(C(=O)O)c2)ccc1O , report its measured inhibition of SARS-CoV-2 cytopathic effect.
Result: 2.03

Query: Need inhibition of SARS-CoV-2 cytopathic effect, item Oc1ccc(-c2c(-c3ccccc3)nn3c(C(F)(F)F)cc(C(F)(F)F)nc23)cc1
Result: 0.21

Query: Quick check: inhibition of SARS-CoV-2 cytopathic effect of CC(=O)OCC(=O)[C@H]1CC[C@H]2[C@@H]3CC[C@H]4C[C@H](O)CC[C@]4(C)[C@H]3C(=O)C[C@]12C [alfadolone-acetate] ?
Result: 3.18

Query: Which inhibition of SARS-CoV-2 cytopathic effect reading was recorded for the molecule CCOc1c2c(c(OCC)c3ccccc13)C(=O)N(c1ccc(CC(=O)NS(=O)(=O)c3ccccc3)cc1)C2 ?
Result: 0.35

Query: Given the entry C/C(O)=C(\C#N)C(=O)Nc1ccc(C(F)(F)F)cc1 [teriflunomide] , report its measured inhibition of SARS-CoV-2 cytopathic effect.
Result: 1.99
